I'd appreciate it if you could supply koff values for the items below.
- test.target: T1, human IL-33 (R&D Systems, #3625-IL-010/CF) (human) (UniProt O95760)
- T1 sequence (looked up): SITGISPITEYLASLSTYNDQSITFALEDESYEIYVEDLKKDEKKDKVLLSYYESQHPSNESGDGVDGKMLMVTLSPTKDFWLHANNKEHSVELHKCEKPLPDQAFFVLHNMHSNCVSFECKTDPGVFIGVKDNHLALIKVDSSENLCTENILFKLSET
- experiment.notes: SPR Biacore T200, 25 C
Please give a number only; it is taken to be in s⁻¹.

(Q) Would you kindly share the measured koff for H4H9671P (antibody, from another filing, IgG4, V domains shown) VH: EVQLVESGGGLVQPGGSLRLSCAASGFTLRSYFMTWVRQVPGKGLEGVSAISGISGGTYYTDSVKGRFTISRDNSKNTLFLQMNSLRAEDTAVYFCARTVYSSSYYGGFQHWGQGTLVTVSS VL: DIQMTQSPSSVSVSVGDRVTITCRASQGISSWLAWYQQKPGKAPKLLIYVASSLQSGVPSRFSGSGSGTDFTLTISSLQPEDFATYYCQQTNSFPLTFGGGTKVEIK ?
(A) 0.000963

(Q) Would you kindly share the measured koff for H4H9667P (antibody, from another filing, IgG4, V domains shown) VH: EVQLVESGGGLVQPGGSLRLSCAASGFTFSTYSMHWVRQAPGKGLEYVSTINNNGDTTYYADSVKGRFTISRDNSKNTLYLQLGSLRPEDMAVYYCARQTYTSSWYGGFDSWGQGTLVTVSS VL: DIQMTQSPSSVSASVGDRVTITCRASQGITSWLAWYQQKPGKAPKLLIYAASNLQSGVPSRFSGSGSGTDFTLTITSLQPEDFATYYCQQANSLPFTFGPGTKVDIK ?
(A) 0.000328

(Q) Would you kindly share the measured koff for H4H9670P (antibody, from another filing, IgG4, V domains shown) VH: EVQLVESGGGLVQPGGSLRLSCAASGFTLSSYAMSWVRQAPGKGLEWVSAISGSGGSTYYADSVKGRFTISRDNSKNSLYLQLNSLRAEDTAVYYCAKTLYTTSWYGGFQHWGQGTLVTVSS VL: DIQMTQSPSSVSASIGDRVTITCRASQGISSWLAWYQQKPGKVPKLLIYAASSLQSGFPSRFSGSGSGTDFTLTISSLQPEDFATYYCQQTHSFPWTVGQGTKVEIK ?
(A) 0.000517

(Q) Would you kindly share the measured koff for H4H9663P (antibody, from another filing, IgG4, V domains shown) VH: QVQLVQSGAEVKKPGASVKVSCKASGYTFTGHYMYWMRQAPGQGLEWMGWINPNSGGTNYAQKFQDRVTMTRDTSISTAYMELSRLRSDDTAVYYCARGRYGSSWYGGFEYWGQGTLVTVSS VL: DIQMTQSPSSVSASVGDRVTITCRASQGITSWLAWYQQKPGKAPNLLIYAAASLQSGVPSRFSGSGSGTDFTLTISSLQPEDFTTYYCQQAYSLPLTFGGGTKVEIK ?
(A) 0.000937

(Q) Would you kindly share the measured koff for H4H9672P (antibody, from another filing, IgG4, V domains shown) VH: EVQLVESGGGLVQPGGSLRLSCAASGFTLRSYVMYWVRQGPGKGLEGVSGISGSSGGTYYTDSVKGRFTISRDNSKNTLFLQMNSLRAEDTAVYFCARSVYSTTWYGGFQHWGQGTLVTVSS VL: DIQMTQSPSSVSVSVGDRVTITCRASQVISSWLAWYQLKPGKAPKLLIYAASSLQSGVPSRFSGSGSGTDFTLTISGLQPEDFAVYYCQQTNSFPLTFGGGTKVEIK ?
(A) 0.000806

(Q) Would you kindly share the measured koff for H4H9676P (antibody, from another filing, IgG4, V domains shown) VH: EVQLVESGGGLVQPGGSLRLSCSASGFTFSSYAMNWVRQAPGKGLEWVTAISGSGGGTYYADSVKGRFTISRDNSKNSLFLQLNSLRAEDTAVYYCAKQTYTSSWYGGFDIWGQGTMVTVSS VL: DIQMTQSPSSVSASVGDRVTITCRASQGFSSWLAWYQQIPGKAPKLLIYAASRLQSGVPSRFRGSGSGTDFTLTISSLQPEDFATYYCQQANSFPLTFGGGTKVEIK ?
(A) 0.001

(Q) Would you kindly share the measured koff for H4H9675P (antibody, from another filing, IgG4, V domains shown) VH: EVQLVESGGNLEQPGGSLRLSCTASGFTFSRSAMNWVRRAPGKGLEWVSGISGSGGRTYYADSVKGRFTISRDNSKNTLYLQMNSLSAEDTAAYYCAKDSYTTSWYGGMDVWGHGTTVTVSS VL: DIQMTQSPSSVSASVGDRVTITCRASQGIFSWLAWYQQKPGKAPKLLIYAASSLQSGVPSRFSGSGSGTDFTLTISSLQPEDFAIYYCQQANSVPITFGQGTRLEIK ?
(A) 0.000637
